Reference source: patent US20110201564A1

Molecular target: androgen receptor (AR) (Homo sapiens)
Construct: of the androgen receptor (AR, amino acids 667-919)
Sequence (P10275 668-920): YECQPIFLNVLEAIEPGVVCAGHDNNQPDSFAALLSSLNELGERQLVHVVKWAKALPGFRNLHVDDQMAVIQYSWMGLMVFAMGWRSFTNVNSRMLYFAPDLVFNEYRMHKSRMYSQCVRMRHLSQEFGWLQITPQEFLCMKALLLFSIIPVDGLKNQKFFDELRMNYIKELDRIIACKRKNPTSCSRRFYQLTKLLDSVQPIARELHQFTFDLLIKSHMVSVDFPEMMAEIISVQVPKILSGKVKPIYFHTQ
Test: Cellular in vitro assay, GAL4-AR chimera luciferase reporter in CHO K1 cells (selectivity)
Conditions: antagonism vs dihydrotestosterone; CHO K1 GAL4-AR LBD luciferase reporter
pIC50: −log10 of the molar value.
readout-label: pIC50

compound	target-under-test	readout-label	measured-number
CS(=O)(=O)Cc1cccc2c(C(c3ccc(F)cc3F)C3CC3)c[nH]c12 (stereo not drawn)	androgen receptor (AR) (Homo sapiens)	pIC50	5.80
CCC(CCO)(c1ccc(Cl)cc1)c1c[nH]c2c(CSC)cccc12 (stereo not drawn)	androgen receptor (AR) (Homo sapiens)	pIC50	5.18
CSCc1cccc2c(C(c3ccc(F)cc3)c3ccc(Cl)cc3F)c[nH]c12 (stereo not drawn)	androgen receptor (AR) (Homo sapiens)	pIC50	5.30
CS(=O)(=O)Cc1cccc2c(C(CCC#N)c3ccc(Cl)cc3F)c[nH]c12 (single isomer, unassigned)	androgen receptor (AR) (Homo sapiens)	pIC50	5.11
C[S+]([O-])Cc1cccc2c(C(c3ccc(F)cc3)c3ccc(Cl)cc3F)c[nH]c12 (mixture of isomers)	androgen receptor (AR) (Homo sapiens)	pIC50	5.24
CS(=O)(=O)Cc1cccc2c(C(c3ccc(Cl)cc3)C3CC3(F)F)c[nH]c12 (single isomer, unassigned) [Example 261-2]	androgen receptor (AR) (Homo sapiens)	pIC50	5.22
CS(=O)(=O)Cc1cccc2c(C(CCC#N)c3ccc(Cl)cc3Cl)c[nH]c12 (stereo not drawn)	androgen receptor (AR) (Homo sapiens)	pIC50	5.15
CSCc1cccc2c(C(CCC#N)c3ccc(Cl)cc3F)c[nH]c12 (single isomer, unassigned)	androgen receptor (AR) (Homo sapiens)	pIC50	5.95
CCC(CCC#N)(c1ccc(Cl)cc1)c1c[nH]c2c(CSC)cccc12 (stereo not drawn)	androgen receptor (AR) (Homo sapiens)	pIC50	5.47
CS(=O)(=O)Cc1cccc2c(C(CCC#N)c3ccc4sccc4c3)c[nH]c12 (stereo not drawn)	androgen receptor (AR) (Homo sapiens)	pIC50	5.28
CS(=O)(=O)Cc1cc(F)cc2c(C(CCC#N)c3ccc(Cl)cc3Cl)c[nH]c12 (stereo not drawn)	androgen receptor (AR) (Homo sapiens)	pIC50	5.42
CS(=O)(=O)Cc1cc(F)cc2c(C(c3ccc(Cl)cc3F)C3CC3C#N)c[nH]c12 (single isomer, unassigned)	androgen receptor (AR) (Homo sapiens)	pIC50	6.01
CS(=O)(=O)Cc1cccc2c(C(c3ccc(Cl)cc3Cl)C3CC3)c[nH]c12 (stereo not drawn)	androgen receptor (AR) (Homo sapiens)	pIC50	5.86
CSCc1cccc2c(C(c3ccc(F)cc3)c3ccc(Cl)cc3)c[nH]c12 (stereo not drawn)	androgen receptor (AR) (Homo sapiens)	pIC50	5.28
CSCc1cc(F)cc2c(C(C)(c3ccc(Cl)cc3)C3CC3C#N)c[nH]c12 (stereo not drawn)	androgen receptor (AR) (Homo sapiens)	pIC50	5.69
C[S+]([O-])Cc1cccc2c(C(c3ccc(Cl)cc3)c3ccc(Cl)cc3)c[nH]c12 (racemic)	androgen receptor (AR) (Homo sapiens)	pIC50	5.18
CS(=O)(=O)Cc1cccc2c(C3(C4CC4)CCc4cc(F)ccc43)c[nH]c12 (stereo not drawn) [Example 107]	androgen receptor (AR) (Homo sapiens)	pIC50	5.48
CCC(CCC#N)(c1ccc(Cl)cc1)c1c[nH]c2c(CS(C)(=O)=O)cccc12 (stereo not drawn) [Example 172]	androgen receptor (AR) (Homo sapiens)	pIC50	5.28
CS(=O)(=O)Cc1cccc2c(C(CCCC#N)c3ccc(Cl)cc3)c[nH]c12 (stereo not drawn)	androgen receptor (AR) (Homo sapiens)	pIC50	5.02
Cc1cc(Cl)ccc1C(CCO)c1c[nH]c2c(CS(C)(=O)=O)cccc12 (stereo not drawn)	androgen receptor (AR) (Homo sapiens)	pIC50	5.65
CSCc1cc(F)cc2c(C(CCC#N)c3ccc(Cl)cc3)c[nH]c12 (stereo not drawn)	androgen receptor (AR) (Homo sapiens)	pIC50	5.53
C[S+]([O-])Cc1cc(F)cc2c(C(CCC#N)c3ccc(Cl)cc3Cl)c[nH]c12 (mixture of isomers)	androgen receptor (AR) (Homo sapiens)	pIC50	5.12
CSCc1cc(F)cc2c(C3(C4CC4)CCc4cc(F)ccc43)c[nH]c12 (stereo not drawn)	androgen receptor (AR) (Homo sapiens)	pIC50	5.80
CS(=O)(=O)Cc1cccc2c(C(CCC#N)c3ccc4ccccc4c3)c[nH]c12 (stereo not drawn)	androgen receptor (AR) (Homo sapiens)	pIC50	5.28
CS(=O)(=O)Cc1cccc2c(C3(C4CC4)CCc4cc(F)ccc43)c[nH]c12 (single isomer, unassigned) [Example 107-1]	androgen receptor (AR) (Homo sapiens)	pIC50	5.67
CC(c1ccc(Cl)cc1F)(c1c[nH]c2c(CS(C)(=O)=O)cccc12)C1CC1 (single isomer, unassigned)	androgen receptor (AR) (Homo sapiens)	pIC50	5.60
CS(=O)(=O)Cc1cccc2c(C(c3ccc(Cl)cc3)C3CC3(F)F)c[nH]c12 (single isomer, unassigned) [Example 261-1]	androgen receptor (AR) (Homo sapiens)	pIC50	5.25
